Data origin: patent US20230382894A1

Target System: CCR4 (Homo sapiens)
Construct: CEM Cells Endogenous Express CCR4; endogenous in cells; host or cells: CEM cells
Sequence (P51679 1-360): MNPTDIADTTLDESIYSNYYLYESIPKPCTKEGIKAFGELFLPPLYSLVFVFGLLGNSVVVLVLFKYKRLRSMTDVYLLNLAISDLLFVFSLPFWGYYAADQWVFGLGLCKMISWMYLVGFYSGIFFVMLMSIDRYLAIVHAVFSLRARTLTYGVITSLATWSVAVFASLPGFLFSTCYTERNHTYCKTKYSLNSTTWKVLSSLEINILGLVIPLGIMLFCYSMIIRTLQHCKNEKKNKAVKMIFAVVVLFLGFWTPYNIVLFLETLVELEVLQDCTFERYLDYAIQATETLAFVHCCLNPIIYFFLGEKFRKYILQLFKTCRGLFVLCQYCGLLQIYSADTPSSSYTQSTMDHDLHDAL
Experimental Protocol: CEM cell chemotaxis (migration) assay to CCL22 (MDC) in 100% Fetal Bovine Serum (FBS)
Type: cell-based
Conditions Used: CEM cells in 100% FBS with 1% HEPEs; recombinant human CCL22 0.1 nM; 37° C. 60 minutes
Assay Endpoint: IC50

{"Compound": "C[C@@H](Nc1nc(N2CCN(C(=O)[C@H]3CCC(=O)N3)CC2)ncc1Cl)c1cc(Cl)cc(Cl)c1 [Example 1.083]", "Observed Measurement": "> 1000 nM"}
{"Compound": "C[C@@H](Nc1nc(N2CC[C@@H](NC(=O)[C@H]3CCCN3)[C@@H](O)C2)ncc1Cl)c1ccc(Cl)cc1Cl [Example 1.028]", "Observed Measurement": "< 100 nM"}
{"Compound": "C[C@@H](Nc1nc(N2CCC(C(=O)NCCN(C)C)CC2)ncc1Cl)c1ccc(Cl)cc1Cl [Example 1.026]", "Observed Measurement": "< 100 nM"}

Continue with the compound presented below.
Documented IC50 of C[C@@H](Nc1nc(N2CCC(C(=O)N[C@@H]3CCNC3=O)CC2)ncc1Cl)c1ccc(Cl)cc1Cl [Example 1.228] : 100 to 1000 nM

---

Target System: CCR4 (Homo sapiens)
Construct: CEM Cells Endogenous Express CCR4; endogenous in cells; host or cells: CEM cells
Experimental Protocol: CEM cell chemotaxis (migration) assay to CCL22 (MDC) in HBSS buffer with 0.1% BSA
Format: cell-based
Conditions Used: CEM cells in HBSS with 0.1% BSA; recombinant human CCL22 0.1 nM; 37° C. 60 minutes
IC50 values for the molecules below.

Below are worked cases with known answers.
{"Molecule": "C[C@@H](Nc1nc(N2CCN(C(=O)C(C)(C)N)CC2)ncc1Cl)c1ccc(Cl)cc1Cl", "Target System": "CCR4 (Homo sapiens)", "IC50": "< 0.1 µM"}
{"Molecule": "C[C@@H](Nc1nc(N2CCN(C(=O)[C@H]3CCC(=O)N3)CC2)ncc1Cl)c1cccc(Cl)c1", "Target System": "CCR4 (Homo sapiens)", "IC50": "> 1 µM"}
{"Molecule": "C[C@@H](Nc1nc(N2CCN(C(=O)[C@@H]3CCCN3C(=O)OC(C)(C)C)CC2)ncc1Cl)c1ccc(Cl)cc1Cl", "Target System": "CCR4 (Homo sapiens)", "IC50": "0.1 to 1 µM"}

Documented IC50 of C[C@@H](Nc1nc(N2CCN(C(=O)[C@H]3CCCN3)CC2)ncc1Cl)c1ccc(Cl)cc1F : < 0.1 µM

Documented IC50 of C[C@@H](Nc1nc(N2CCC(C3CCCN(CCO)C3)CC2)ncc1Cl)c1ccc(Cl)cc1Cl (stereo partly shown) : < 0.1 µM

Documented IC50 of C[C@@H]1CN(C(=O)[C@H]2CCCN2)CCN1c1ncc(Cl)c(N[C@H](C)c2ccc(Cl)cc2Cl)n1 : < 0.1 µM

Documented IC50 of C[C@@H](Nc1nc(N2CCN(C(=O)N(C)C3CCNC3)CC2)ncc1Cl)c1ccc(Cl)cc1Cl (stereo partly shown) : < 0.1 µM

---

IC50 values for the compounds below.
Target System: CCR4 (Homo sapiens)
Construct: CEM Cells Endogenous Express CCR4; endogenous in cells; host or cells: CEM cells
Experimental Protocol: CEM cell chemotaxis (migration) assay to CCL22 (MDC) in 100% Fetal Bovine Serum (FBS)
Format: cell-based
Conditions Used: CEM cells in 100% FBS with 1% HEPEs; recombinant human CCL22 0.1 nM; 37° C. 60 minutes

Below are worked cases with known answers.
{"Compound": "C[C@@H](Nc1nc(N2CCC(NC(=O)C3CCN(C)C3)CC2)ncc1Cl)c1ccc(Cl)cc1Cl (some centres unmarked) [Example 1.009]", "IC50": "< 100 nM"}
{"Compound": "C[C@@H](Nc1nc(N2CCN(C(=O)C3CNC(=O)CN3)CC2)ncc1Cl)c1ccc(Cl)cc1Cl (some centres unmarked) [Example 1.209]", "IC50": "100 to 1000 nM"}
{"Compound": "COc1cnc(N2CCN(C(=O)C34CC(CN3)C4)CC2)nc1N[C@H](C)c1ccc(Cl)cc1Cl [Example 1.121]", "IC50": "< 100 nM"}
{"Compound": "C[C@@H](Nc1nc(N2CCN(C(=O)C3CNC(=O)C3)CC2)ncc1Cl)c1ccc(Cl)cc1Cl (some centres unmarked) [Example 1.147]", "IC50": "< 100 nM"}
{"Compound": "C[C@@H](Nc1nc(N2CCN(C(=O)[C@H]3CCCN3CCC(F)(F)F)CC2)ncc1Cl)c1ccc(Cl)cc1Cl [Example 1.219]", "IC50": "100 to 1000 nM"}
{"Compound": "C[C@@H](Nc1nc(N2CC[C@H](NC(=O)[C@@H]3CCC(=O)N3)[C@@H](O)C2)ncc1Cl)c1ccc(Cl)cc1Cl [Example 1.254]", "IC50": "< 100 nM"}
{"Compound": "C[C@@H](Nc1nc(N2CCN(C(=O)[C@H]3CCN(C)C3)CC2)ncc1C#N)c1ccc(Cl)cc1Cl [Example 1.243]", "IC50": "< 100 nM"}
{"Compound": "C[C@@H](Nc1nc(N2CC[C@H](NC(=O)[C@H]3CCCN3)[C@H](O)C2)ncc1Cl)c1ccc(Cl)cc1Cl [Example 1.014]", "IC50": "< 100 nM"}

Documented IC50 of C[C@@H]1CC[C@H](C(=O)N[C@H]2CCN(c3ncc(Cl)c(N[C@H](C)c4ccc(Cl)cc4Cl)n3)C[C@@H]2O)N1 [Example 1.248] : < 100 nM

Documented IC50 of C[C@@H]1CC[C@H](C(=O)N2CCN(c3ncc(Cl)c(N[C@H](C)c4ccc(Cl)cc4Cl)n3)CC2)N1 [Example 1.247] : < 100 nM

Documented IC50 of C[C@@H](Nc1nc(N2CCN(C(=O)CCN3CCOCC3)CC2)ncc1Cl)c1ccc(Cl)cc1Cl [Example 1.196] : 100 to 1000 nM

Documented IC50 of C[C@@H]1CN(c2ncc(Cl)c(N[C@H](C)c3ccc(Cl)cc3Cl)n2)CCN1C(=O)[C@H]1CN(C)C(=O)N1 [Example 1.104] : < 100 nM

Documented IC50 of C[C@@H](Nc1nc(N2CC[C@@H](NC(=O)[C@H]3CCCN3)[C@H](O)C2)ncc1OC(F)F)c1ccc(Cl)cc1Cl [Example 1.118] : < 100 nM

Documented IC50 of C[C@@H](Nc1nc(C2CCN(C(=O)[C@H]3CCC(=O)N3)CC2)ncc1Cl)c1ccc(Cl)cc1Cl [Example 1.160] : > 1000 nM

---

Target System: CCR4 (Homo sapiens)
Construct: CEM Cells Endogenous Express CCR4; endogenous in cells; host or cells: CEM cells
Experimental Protocol: CEM cell chemotaxis (migration) assay to CCL22 (MDC) in 100% Fetal Bovine Serum (FBS)
Type: cell-based
Conditions Used: CEM cells in 100% FBS with 1% HEPEs; recombinant human CCL22 0.1 nM; 37° C. 60 minutes
From the text: CEM Cells Endogenous Express CCR4 A chemotaxis assay can be used to determine the efficacy of potential receptor antagonists at blocking the migration mediated through chemokine receptors, such as CCR4. This assay is routinely performed using the ChemoTX® microchamber system with a 5 μm pore-sized polycarbonate membrane. FBS: CEM Cells are collected by centrifugation at 400×g at room temperature, then suspended at 5 million/ml in 100% Fetal Bovine Serum (FBS) with 1% HEPEs. […]
Assay Endpoint: IC50

Below are worked cases with known answers.
{"Molecule": "C[C@@H](Nc1nc(N2CCN(C(=O)[C@H]3CCNC3)CC2)ncc1Cl)c1ccc(Cl)cc1Cl [Example 1.150]", "Assay Endpoint": "IC50", "Observed Measurement": "< 100 nM"}
{"Molecule": "C[C@@H](Nc1nc(N2CCN(C(=O)[C@H]3CCC(=O)N3)CC2)ncc1Cl)c1cc(F)c(Cl)cc1Cl [Example 1.202]", "Assay Endpoint": "IC50", "Observed Measurement": "< 100 nM"}
{"Molecule": "C[C@@H](Nc1nc(N2CCN(C(=O)[C@H]3CN(C)C(=O)N3)CC2)ncc1F)c1ccc(Cl)cc1Cl [Example 1.103]", "Assay Endpoint": "IC50", "Observed Measurement": "< 100 nM"}

Documented IC50 of COc1cnc(N2CCC(C3CCCN(CCO)C3)CC2)nc1N[C@H](C)c1ccc(Cl)cc1Cl (stereo partly shown) [Example 1.158] : < 100 nM

Documented IC50 of C[C@@H](Nc1nc(N2CCN(C(=O)[C@H]3CCN3)CC2)ncc1Cl)c1ccc(Cl)cc1Cl [Example 1.033] : < 100 nM

Documented IC50 of C[C@@H](Nc1nc(N2CCN(C(=O)[C@H]3CNC(=O)N3)CC2)ncc1Cl)c1ccc(Cl)cc1Cl [Example 1.222] : < 100 nM

Documented IC50 of C[C@@H](Nc1nc(N2CCN(C(=O)[C@H]3CCN(C)C3)CC2)ncc1Cl)c1ccc(Cl)cc1Cl [Example 1.143] : < 100 nM

Documented IC50 of C[C@@H](Nc1nc(C2=CCN([C@H]3CCCN(CCO)C3)CC2)ncc1Cl)c1ccc(Cl)cc1Cl [Example 1.058] : < 100 nM

Documented IC50 of C[C@@H](Nc1ccnc(N2CCN(C(=O)[C@H]3CCCN3)CC2)n1)c1ccc(Cl)cc1Cl [Example 1.115] : < 100 nM

Documented IC50 of C[C@@H]1CN(c2ncc(Cl)c(N[C@H](C)c3ccc(Cl)cc3Cl)n2)CCN1C(=O)c1c[nH]c(=O)n(C)c1=O [Example 1.018] : > 1000 nM

Documented IC50 of COCc1cnc(N2CCN(C(=O)[C@H]3CCC(=O)N3)CC2)nc1N[C@H](C)c1ccc(Cl)cc1Cl [Example 1.102] : < 100 nM

Documented IC50 of C[C@@H](Nc1nc(N2CCN(C(=O)[C@H]3CCCN3C(=O)OC(C)(C)C)CC2)ncc1Cl)c1ccc(Cl)cc1Cl [Example 1.051] : 100 to 1000 nM

Documented IC50 of C[C@@H](Nc1nc(N2CC[C@H](NC(=O)[C@H]3CCCN3)[C@@H](O)C2)ncc1F)c1ccc(Cl)cc1Cl [Example 1.107] : < 100 nM

Documented IC50 of C[C@@H](Nc1nc(N2CCN(C(=O)[C@H]3C[C@H](F)CN3)CC2)ncc1Cl)c1ccc(Cl)cc1Cl [Example 1.142] : < 100 nM

Documented IC50 of C[C@@H](Nc1nc(N2CCN(C(=O)[C@H]3CCCN3C3CC(C)(C(=O)O)C3)CC2)ncc1Cl)c1ccc(Cl)cc1Cl (stereo partly shown) [Example 1.152] : > 1000 nM

Documented IC50 of Cc1cc(Cl)ccc1[C@@H](C)Nc1nc(N2CCN(C(=O)[C@H]3CCC(=O)N3)CC2)ncc1Cl [Example 1.088] : 100 to 1000 nM

Documented IC50 of COc1cnc(N2CCN(C(=O)[C@H]3CCCN3)CC2)nc1N[C@H](C)c1ccc(Cl)cc1Cl [Example 1.197] : < 100 nM

Documented IC50 of C[C@@H](Nc1nc(N2CCN(C(=O)[C@H]3CCCN3Cc3nnn[nH]3)CC2)ncc1Cl)c1ccc(Cl)cc1Cl [Example 1.139] : < 100 nM

Documented IC50 of C[C@@H](Nc1nc(N2CCC(NC(=O)[C@@H]3CNCCO3)CC2)ncc1Cl)c1ccc(Cl)cc1Cl [Example 1.131] : > 1000 nM

Documented IC50 of C[C@@H](Nc1nc(N2CCN(C(=O)[C@@]3(C)CCC(=O)N3)CC2)ncc1Cl)c1ccc(Cl)cc1Cl [Example 1.244] : > 1000 nM
